This listing pairs compounds with measured pKi.
# targetOrTestSystem: BACE1 (Homo sapiens (Human))
# Sequence (P56817 75-416): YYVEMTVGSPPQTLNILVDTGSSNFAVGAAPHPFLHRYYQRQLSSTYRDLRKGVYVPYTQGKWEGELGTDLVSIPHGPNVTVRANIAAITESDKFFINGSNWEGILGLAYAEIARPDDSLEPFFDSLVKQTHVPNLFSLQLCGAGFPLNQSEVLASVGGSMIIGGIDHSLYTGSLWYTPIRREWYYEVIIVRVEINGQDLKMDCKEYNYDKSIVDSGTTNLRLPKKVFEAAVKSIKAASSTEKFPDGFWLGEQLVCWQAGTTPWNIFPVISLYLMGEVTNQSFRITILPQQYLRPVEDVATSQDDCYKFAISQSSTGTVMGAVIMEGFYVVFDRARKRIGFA
# assayDetails: Measurement of BACE1 inhibition by fluorescence resonance energy transfer (FRET), MCA substrate
# assayConditions: read-out: Test Example 1 BACE1 MCA Ki; FRET, MCA substrate
pKi: −log10 of the molar value.
parameterMeasured: pKi

[[record]]
compound = "CC1(C)Oc2ccc(-c3cc(F)cc(Cl)c3)cc2C2(COC(N)=N2)C12COC2 (centres unmarked)"
parametermeasured = "pKi"
measurement = 6.73

[[record]]
compound = "CC#Cc1cncc(-c2ccc3c(c2)C2(COC(N)=N2)C2(CC2)CO3)c1 (centres unmarked)"
parametermeasured = "pKi"
measurement = 6.60

[[record]]
compound = "CC1(C)Oc2ccc(NC(=O)c3ncc(Cl)cc3F)cc2C2(COC(N)=N2)C12COC2 (centres unmarked)"
parametermeasured = "pKi"
measurement = 7.29

[[record]]
compound = "CC#Cc1cncc(-c2ccc3c(c2)C2(COC(N)=N2)C2(COC2)C(CC2CC2)O3)c1 (centres unmarked)"
parametermeasured = "pKi"
measurement = 7.08

[[record]]
compound = "CC#Cc1cncc(-c2ccc3c(c2)C2(COC(N)=N2)C2(COC2)C2(CCC2)O3)c1 (centres unmarked)"
parametermeasured = "pKi"
measurement = 6.92

[[record]]
compound = "N#Cc1ccc(C(=O)Nc2ccc3c(c2)C2(COC(N)=N2)C2(CC2)CO3)nc1 (centres unmarked)"
parametermeasured = "pKi"
measurement = 6.47

[[record]]
compound = "NC1=NC2(CO1)c1cc(-c3cncnc3)ccc1OC(Cc1ccccc1)C21COC1 (centres unmarked) [RP 202]"
parametermeasured = "pKi"
measurement = 6.95

[[record]]
compound = "NC1=NC2(CO1)c1cc(NC(=O)c3ccc(Cl)cn3)ccc1OCC21CC1 (centres unmarked)"
parametermeasured = "pKi"
measurement = 6.42

